Tested on: HS 578T breast
Test: NCI tumour cell line growth inhibition, 48 h
observed property: TGI (µM)
State just the number; it will be interpreted in µM.

Using the record for C=C1C(=O)C23CC1C[C@H](OC(C)=O)[C@H]2C1(C)C(OC(C)=O)C[C@H](O)C(C)(C)[C@H]1C(=O)[C@@H]3OC(C)=O (stereo not given in full) , report its TGI.
15.3

Using the record for CC(=O)Nc1ccc(C(=O)NN2C(=O)C(Cl)C2c2ccc(Cl)cc2)cc1 (stereo not given) , report its TGI.
41.6

---

System: HL-60(TB) leukemia
Test: NCI tumour cell line growth inhibition, 48 h
observed property: GI50

Using the record for CCOC(=O)C(Cc1c[nH]c2ccc(N)cc12)(NC(C)=O)C(=O)OCC , report its GI50.
758 µM

Using the record for COc1cc(/C=C/C(=O)CC(=O)/C=C/c2cc(OC)c(OC)c(OC)c2)cc(OC)c1OC , report its GI50.
5.15 µM

Using the record for CC(=O)c1c(C)[nH]c(-c2nc3ccc(N4CCN(C)CC4)cc3[nH]2)c1-c1ccc(OCC2CCOCC2)cc1 , report its GI50.
0.129 µM

Using the record for COC(=O)c1cc2c(cc1Cl)SC(N(N(C)C)S(=O)(=O)c1ccc(Br)s1)=NS2(=O)=O , report its GI50.
19.6 µM

Using the record for Cc1ccccc1NC(=O)N/C(N)=N/c1nc(-c2cccc([N+](=O)[O-])c2)cs1 , report its GI50.
3.56 µM

---

System: K-562 leukemia
Assay: NCI tumour cell line growth inhibition, 48 h; in the data active = GI50 below about 0.43 µM; inactive = the rest
Your response should consist of one outcome taken from 1.0 = active, 0.0 = inactive

What did the test return for COC(=O)c1cc2c(cc1Cl)SC(N(N(C)C)S(=O)(=O)c1ccc(Br)s1)=NS2(=O)=O ?
0.0

What did the test return for O=[N+]([O-])c1cc(Cl)c(Cl)c([N+](=O)[O-])c1Cl ?
1.0

What did the test return for O=c1c(Oc2ccc(F)cc2F)cc2cnc(NC3CCOCC3)nc2n1C1CCS(=O)(=O)CC1 ?
0.0

What did the test return for Cc1cc(C)c([O-])c(CN(C)CCN(C)Cc2cc(C)cc(C)c2[O-])c1.O=C([O-])c1cccc(C(=O)[O-])n1.[Ti+4] ?
0.0

What did the test return for O=Cc1ccc(-c2cc(C=O)c(-c3cccs3)[nH]2)s1 ?
0.0

What did the test return for COc1cc(/C=C/C(=O)CC(=O)/C=C/c2cc(OC)c(OC)c(OC)c2)cc(OC)c1OC ?
0.0

What did the test return for COc1ccc(CN(C)c2ccc(CO)c(Cl)c2)cc1 ?
0.0

What did the test return for CCOC(=O)c1cc(C#N)c(=O)n(/N=C(\C)c2ccncc2)c1O ?
0.0

What did the test return for CCOC(=O)C(Cc1c[nH]c2ccc(N)cc12)(NC(C)=O)C(=O)OCC ?
0.0

What did the test return for Cc1nc2sc(C(=O)Nc3cccc(Cl)c3C)c(N)c2cc1C(=O)/C=C/c1ccccc1 ?
1.0

What did the test return for CC(O)c1cccc(NCc2c3ccccc3c(=O)n3c2oc2ccccc23)c1 (stereo not drawn) ?
0.0

What did the test return for COc1cc(Nc2nccc(Nc3ccc4c(C)[nH]nc4c3)n2)cc(OC)c1OC ?
0.0

What did the test return for CC[C@H](NC(=O)[C@H](C)NC)C(=O)N1C[C@@H](O)C[C@H]1Cc1c(-c2[nH]c3cc(F)ccc3c2C[C@@H]2C[C@H](O)CN2C(=O)[C@H](CC)NC(=O)[C@H](C)NC)[nH]c2cc(F)ccc12 ?
0.0

---

Test system: TK-10 renal
Experiment: NCI tumour cell line growth inhibition, 48 h; in the data active means GI50 below about 0.43 µM; inactive means the rest
Your response should consist of one outcome taken from Yes (active), No (inactive)

What did the test return for CC(=O)N[C@H]1C=C[C@@H]2/C=C(C)/C=C/[C@@H](C)[C@H]([C@H](C)[C@H](O)[C@@H](C)NC(C)=O)OC(=O)/C=C/C=C(C)\C=C\[C@]2(C)C1 ?
Yes

What did the test return for Cc1ccccc1NC(=O)N/C(N)=N/c1nc(-c2cccc([N+](=O)[O-])c2)cs1 ?
No

What did the test return for CCOC(=O)C(Cc1c[nH]c2ccc(N)cc12)(NC(C)=O)C(=O)OCC ?
No

What did the test return for O=C1c2ccccc2-c2c1c1ccccc1c(=O)n2CCCNCCCn1ccnc1 ?
No

What did the test return for COc1cc(Nc2nccc(Nc3ccc4c(C)[nH]nc4c3)n2)cc(OC)c1OC ?
No

What did the test return for CCN1CCN(C(=O)[C@]23CC[C@@H](C)[C@H](C)[C@@H]2C2=CC[C@@H]4[C@@]5(C)C/C(=C/c6ccncc6)C(=O)C(C)(C)[C@@H]5CC[C@@]4(C)[C@]2(C)CC3)CC1 ?
No

What did the test return for O=c1c2c(nc3n1CCS3)[nH]c1ccccc12 ?
No

What did the test return for Nc1c(C(=O)c2ccc(Cl)cc2)sc(Nc2ccccc2)c1-c1nc2ccccc2s1 ?
No

What did the test return for O=S(=O)(NC1=NCCN1C(=S)SN1CCn2c1nsc2=S)c1ccc(Br)cc1 ?
No

What did the test return for CC(=O)c1c(C)[nH]c(-c2nc3ccc(N4CCN(C)CC4)cc3[nH]2)c1-c1ccc(OCC2CCOCC2)cc1 ?
Yes

What did the test return for COc1cc(/C=C/C(=O)CC(=O)/C=C/c2cc(OC)c(OC)c(OC)c2)cc(OC)c1OC ?
No

What did the test return for O=C1Nc2ccc(C(=O)c3ccco3)cc2/C1=C/c1cc(Cl)c(O)c(Cl)c1 ?
No

What did the test return for ClCc1cccc(Cn2cnc3c(NC45CC6CC(CC(C6)C4)C5)ncnc32)c1 ?
No

---

Test system: RPMI-8226 leukemia
Test: NCI tumour cell line growth inhibition, 48 h
Could you please report measured log10 of TGI for the items listed next?
A difference of one corresponds to tenfold TGI; all values are log10 with TGI in µM.

Using the record for COC(=O)C(Cc1c[nH]c2ccccc12)N=C1Nc2ccncc2S(=O)(=O)N1c1ccccc1 (stereo unspecified) , report its log10 of TGI.
1.47

Using the record for CC(C)(C)[Si](C)(C)O[C@@H](C(=O)OC1C=CCCC1)[C@@H](NC(=O)c1ccccc1)c1ccccc1 (stereo partly specified) , report its log10 of TGI.
1.00

Using the record for Cc1nc2sc(C(=O)Nc3cccc(Cl)c3C)c(N)c2cc1C(=O)/C=C/c1ccccc1 , report its log10 of TGI.
-0.33

Using the record for COc1ccc2cc(CNCCCCCCCCCCCCNCc3ccc4cc(OC)ccc4c3)ccc2c1 , report its log10 of TGI.
1.63

Using the record for COc1cc2c(cc1OCCCOc1cc3c(cc1OC)C(=O)N1C[C@H](F)C[C@H]1C=N3)N=C[C@@H]1C[C@@H](F)CN1C2=O , report its log10 of TGI.
0.76

Using the record for CC/C(C)=C1\CCC(CN2CCOCC2)C1=O (stereo unspecified) , report its log10 of TGI.
1.20

Using the record for COc1cc(OC)cc(C2CC(=O)Nc3c2c(C)nn3-c2nc3ccccc3[nH]2)c1 (stereo unspecified) , report its log10 of TGI.
0.80

Using the record for Cn1c([N+](=O)[O-])cnc1/C=C1\Oc2ccccc2C1=O , report its log10 of TGI.
0.73

Using the record for O=[N+]([O-])c1cc(Cl)c(Cl)c([N+](=O)[O-])c1Cl , report its log10 of TGI.
0.42

---

Tested on: HOP-62 NSCLC
Assay: NCI tumour cell line growth inhibition, 48 h
Could you please report measured TGI for the items listed next?
State just the number; it will be interpreted in µM.

I'm curious: which TGI was measured for CCOC(=O)C(SCCO)C(C(=O)OCC)n1cnc2c(N)ncnc21 (stereo not given) tested on HOP-62 NSCLC?
45.4

I'm curious: which TGI was measured for CC(=O)O[C@H]1CC[C@H]2[C@@H]3CCC4C(C)=NNC(=O)C4[C@H]3CC[C@]12C (stereo not given in full) tested on HOP-62 NSCLC?
57.6

---

Test system: RXF 393 renal
Assay: NCI tumour cell line growth inhibition, 48 h
Could you please report measured TGI for the items listed next?

Using the record for O=C1c2ccccc2C(=O)N1CCCSc1ccccc1 , report its TGI.
> 100 µM

Using the record for O=c1c2cc(Cl)ccc2oc2ccc(OCCCCCN3CCCCC3)cc12 , report its TGI.
7.2 µM

Using the record for CCN(CC)c1cc2c3c(c1)CCCN3CCC2 , report its TGI.
> 10 µM

Using the record for CC[C@](O)(CC(=O)O[C@H]1C(=O)O[C@@H]2C[C@H]3C(C)=CC(=O)[C@@H](O)[C@]3(C)[C@H]3[C@@]4(O)OC[C@]32[C@@H]1[C@@H](C)[C@H]4O)C(C)C , report its TGI.
< 0.01 µM

Using the record for CCOC(=O)C(Cl)(NC(=O)NC(Cl)(C(=O)OCC)C(F)(F)F)C(F)(F)F (stereo not drawn) , report its TGI.
> 100 µM

Using the record for O=C(Nc1cc(Cl)c(Cl)cc1Cl)C(=O)C1C=CCS1(=O)=O (stereo not drawn) , report its TGI.
> 100 µM

Using the record for Nc1c(C(=O)c2ccc(Cl)cc2)sc(Nc2ccccc2)c1-c1nc2ccccc2s1 , report its TGI.
33.1 µM

Using the record for Cc1ccc(-n2cnc3c(N)nc(N)nc32)cc1 , report its TGI.
> 100 µM

Using the record for COc1cc(/C=C/C(=O)CC(=O)/C=C/c2cc(OC)c(OC)c(OC)c2)cc(OC)c1OC , report its TGI.
8.84 µM

Using the record for O=c1c(Oc2ccc(F)cc2F)cc2cnc(NC3CCOCC3)nc2n1C1CCS(=O)(=O)CC1 , report its TGI.
> 25 µM

Using the record for CC1=NN(C(=O)CC(=O)Nc2ccc(C)cc2)C(=O)C1N=Nc1ccc(C(=O)O)cc1 (stereo not drawn) , report its TGI.
> 100 µM

Using the record for COc1ccc(/C=N\NC(=O)CN2CCN(c3cc4c(cc3F)c(=O)c(C(=O)N/N=C/c3ccc(OC)c(OC)c3)cn4C3CC3)CC2)cc1OC , report its TGI.
15.2 µM

Using the record for COc1ccc(Nc2nnc(CCCCCCCCc3nnc(Nc4ccc(OC)cc4)o3)o2)cc1 , report its TGI.
> 100 µM

Using the record for COc1cc(S(=O)(=O)Nc2nc(-c3ccc(N4C(=O)C(CC(=O)O)SC4c4ccccc4O)cc3)cs2)ccc1Cl (stereo not drawn) , report its TGI.
> 100 µM

Using the record for CC(=O)C(I(OS(=O)(=O)c1ccc(C)cc1)c1ccccc1)=P(c1ccccc1)(c1ccccc1)c1ccccc1 , report its TGI.
> 100 µM

Using the record for O=C(Nc1ccc(Cl)cc1Cl)C(=O)Nn1c(=S)[nH]c2ccccc2c1=O , report its TGI.
> 100 µM

Using the record for Nc1nc(Cl)c(N)c(NCC2(CO)CCC2)n1 , report its TGI.
> 100 µM

Using the record for Nc1ccc(N(S(=O)(=O)c2ccccc2)S(=O)(=O)c2ccccc2)c(Cl)c1 , report its TGI.
> 100 µM

These data points were gathered from PubChem BioAssay (NCI).
